tested.system: BRAF V600E (Homo sapiens, UniProt P15056, V600E)
Construct: expressed in transfected cells
Sequence (P15056 whole entry V600E): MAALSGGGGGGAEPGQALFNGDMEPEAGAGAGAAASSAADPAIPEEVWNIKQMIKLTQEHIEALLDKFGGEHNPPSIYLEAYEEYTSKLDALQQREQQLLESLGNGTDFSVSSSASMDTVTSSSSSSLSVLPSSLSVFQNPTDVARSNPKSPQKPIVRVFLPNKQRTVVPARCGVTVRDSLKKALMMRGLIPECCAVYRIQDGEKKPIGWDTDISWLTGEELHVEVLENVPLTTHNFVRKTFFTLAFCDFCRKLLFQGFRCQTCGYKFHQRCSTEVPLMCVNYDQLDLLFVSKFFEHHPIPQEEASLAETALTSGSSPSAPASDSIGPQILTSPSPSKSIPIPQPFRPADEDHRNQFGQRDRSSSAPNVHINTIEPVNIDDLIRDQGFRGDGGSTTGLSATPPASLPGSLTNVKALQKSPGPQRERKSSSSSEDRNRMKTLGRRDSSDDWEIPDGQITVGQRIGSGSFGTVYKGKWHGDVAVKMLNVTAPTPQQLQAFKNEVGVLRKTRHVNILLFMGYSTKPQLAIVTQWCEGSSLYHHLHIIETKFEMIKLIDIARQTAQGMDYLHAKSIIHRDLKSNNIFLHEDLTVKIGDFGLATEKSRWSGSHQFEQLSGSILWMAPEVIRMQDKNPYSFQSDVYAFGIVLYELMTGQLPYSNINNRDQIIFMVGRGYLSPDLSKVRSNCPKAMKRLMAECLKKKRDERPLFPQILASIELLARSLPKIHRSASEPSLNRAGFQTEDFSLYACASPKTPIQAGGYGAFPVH
test: Cellular assay of target protein degradation, T-Rex 293 cells stably transfected with HA-BRAF_V600E (HA immunofluorescence, high content imaging)
Assay type: cell-based
condition.summary: half maximal degradation, T-Rex 293 HA-BRAF V600E; read-out: BRaf V600E DC50
Exercise: for every item that follows, state its recorded DC50.

Read the entry O=C1CCC(N2Cc3cc(C4CCN(CC[C@@H]5CCN(c6ccc(-c7cnc8[nH]cc(C(=O)c9c(F)ccc(NS(=O)(=O)N%10CC[C@@H](F)C%10)c9F)c8c7)cc6)C5)CC4)ccc3C2=O)C(=O)N1 (stereo partly drawn) and write its reported DC50. 0.005 to 0.05 µM

Output DC50 of O=C1CC[C@H](NC(=O)N2CCCc3c(N4CCN(CC5CCN(c6ccc(-c7cnc8[nH]cc(C(=O)c9c(F)ccc(NS(=O)(=O)N%10CC[C@@H](F)C%10)c9F)c8c7)cc6)CC5)CC4)ccnc32)C(=O)N1 0.005 to 0.05 µM

Supply DC50 value. Item: O=C1CC[C@H](NC(=O)c2ccc(N3CCN(CCc4ccc(-c5cnc6[nH]cc(C(=O)c7c(F)ccc(NS(=O)(=O)N8CC[C@@H](F)C8)c7F)c6c5)cc4)CC3)cc2F)C(=O)N1 0.005 to 0.05 µM

# return recorded DC50 for entry O=C1CCC(N2Cc3cc(N4CCC(N5C[C@@H]6C[C@H]5CN(c5ccc(-c7cnc8[nH]cc(C(=O)c9c(F)ccc(NS(=O)(=O)N%10CC[C@@H](F)C%10)c9F)c8c7)cc5)C6)CC4)ccc3C2=O)C(=O)N1 (stereo partly drawn) 0.05 to 0.5 µM

Kindly indicate its recorded DC50. Item: O=C1CCC(N2Cc3cc(N4CCC(N5CCCC56CN(c5ccc(-c7cnc8[nH]cc(C(=O)c9c(F)ccc(NS(=O)(=O)N%10CC[C@@H](F)C%10)c9F)c8c7)cc5)C6)CC4)ccc3C2=O)C(=O)N1 (stereo partly drawn) > 0.5 µM

Please indicate DC50 recorded for O=C1CCC(N2Cc3cc(N4CC(CN5CCN(C6CCN(c7ccc(-c8cnc9[nH]cc(C(=O)c%10c(F)ccc(NS(=O)(=O)N%11CC[C@@H](F)C%11)c%10F)c9c8)cc7)CC6)CC5)C4)ccc3C2=O)C(=O)N1 (stereo partly drawn) 0.005 to 0.05 µM

Supply recorded DC50 for O=C1CCC(N2Cc3cc(N4CCC(C5CCN(c6ccc(-c7cnc8[nH]cc(C(=O)c9c(F)ccc(NS(=O)(=O)N%10CC[C@@H](F)C%10)c9F)c8c7)cc6)CC5)CC4)ccc3C2=O)C(=O)N1 (stereo partly drawn) here. 0.005 to 0.05 µM

State its DC50 for this compound: O=C1CC[C@H](N2Cc3cc(OC[C@H](O)CN4CC5(C4)CN(c4ccc(-c6cnc7[nH]cc(C(=O)c8c(F)ccc(NS(=O)(=O)N9CC[C@@H](F)C9)c8F)c7c6)cc4)C5)ccc3C2=O)C(=O)N1 0.005 to 0.05 µM

Output measured DC50 for this item: O=C1CCN(c2ccc(N3CCN(CCc4ccc(-c5cnc6[nH]cc(C(=O)c7c(F)ccc(NS(=O)(=O)N8CC[C@@H](F)C8)c7F)c6c5)cc4)CC3)cc2F)C(=O)N1 0.05 to 0.5 µM
